Values were extracted from patent US20060269997A1.

Biological target: T1, KDR (1-3) monomer (UniProt P35968 20-327, limits assumed, biotin-labeled in the ELISA of Example 8)
T1 construct: domain: domains 1 to 3; Genentech reagent; also called domains 1 to 3 of KDR
T1 sequence (P35968 20-327 limits assumed): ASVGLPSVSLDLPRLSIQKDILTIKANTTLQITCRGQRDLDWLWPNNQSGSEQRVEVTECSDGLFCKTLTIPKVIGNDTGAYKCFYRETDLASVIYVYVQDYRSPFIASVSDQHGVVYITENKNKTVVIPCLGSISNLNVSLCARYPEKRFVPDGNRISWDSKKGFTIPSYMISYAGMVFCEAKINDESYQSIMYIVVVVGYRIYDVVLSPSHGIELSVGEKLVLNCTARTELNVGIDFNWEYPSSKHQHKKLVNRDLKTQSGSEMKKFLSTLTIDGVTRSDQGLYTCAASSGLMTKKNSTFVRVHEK
Assay: competition ELISA: plate coated with VEGF (8-109), 100 pM biotin-labeled KDR(1-3), serial dilutions of the competing VEGF (Example 8)
recorded-metric: fold reduction in binding (IC50 variant / IC50 VEGF(1-109)) (fold)
Record the value in fold, omitting the unit from your answer.

[[record]]
binder = "Lys 16 (ligand) APMAEGGGQNHHEVVAFMDVYQRSYCHPIETLVDIFQEYPDEIEYIFKPSCVPLMRCGGCCNDEGLECVPTEESNITMQIMRIKPHQGQHIGEMSFLQHNKCECRPKKD"
value_observed = 1


The record that follows has no fold reduction in binding (IC50 variant / IC50 VEGF(1-109)) shown yet.
Task item: Return value of fold reduction in binding (IC50 variant / IC50 VEGF(1-109)) for input Lys 101 (ligand) APMAEGGGQNHHEVVKFMDVYQRSYCHPIETLVDIFQEYPDEIEYIFKPSCVPLMRCGGCCNDEGLECVPTEESNITMQIMRIKPHQGQHIGEMSFLQHNACECRPKKD , no commentary.
Reply: 1
